# measurement-target: sHLA-A*0201 (Homo sapiens, UniProt P04439, D140Y/D185E/D98H/E176V/E277Q/G131W/G231S/I119V/I121R/I166T/I218V/L300P/L318F/N151K/N90K/P208A/P217A/Q86G/Q94H/R138H/R169H/T345S)
# measurement-protocol: biochemical
# Format: binding
# Parameters: contained the leader peptide, as well as the α1, α2, and α3 coding domains of the HLA heavy chain; made in house; β2m from Fitzgerald Industries International
# reported-conditions: 50 μg/mL (1059 nM) sHLA-A*0201, β2m 2117 nM, 1 nM FITC-labeled reference peptide P5; read-out: StD comp assay (FP) IC50
pIC50: −log10 of the molar value. Ends that are not written are not given here.
metric-name: pIC50

sequence-chain	metric-name	value-reported
YLLPAIVHI	pIC50	6.29
DLVHFASPL	pIC50	3.44
KLGEFYNQMM	pIC50	5.55
